Origin of values: ChEMBL document CHEMBL1134232

- measurement_target: Retinoic acid receptor gamma (Homo sapiens)
- procedure_text: Efficacy of TTNPB (10 nM) function at retinoic acid receptor gamma (10 uM)
measurement_type: Efficacy (%)
The answer is to be given in %; state only the numeric part.

Exercise: Looking for the measured Efficacy of `Cc1ccc(C2=C(/C=C/C#Cc3ccc(C(=O)O)cc3)C(C)(C)CCC2)cc1` , can you help?
Key: 96

Exercise: Fill blank: measured Efficacy of the compound `CCc1ccc(C2=C(/C=C/C#Cc3ccc(C(=O)O)cc3)C(C)(C)CCC2)cc1` is ____.
Key: 95

Exercise: Request the reported Efficacy associated with `Cc1ccc(C2=CCC(C)(C)C=C2/C=C/C#Cc2ccc(C(=O)O)cc2)cc1`
Key: 97

Exercise: Would you mind telling me what Efficacy value was observed for `CC1(C)CCCC(c2ccc(C(C)(C)C)cc2)=C1/C=C/C#Cc1ccc(C(=O)O)cc1` ?
Key: 95

Exercise: Record request: Efficacy value, item `Cc1ccc(C2=CCC(C)(C)c3ccc(C#Cc4ccc(C(=O)O)cc4)cc32)cc1`
Key: 98
